- Target or system: human recombinant AChE (Homo sapiens)
- Construct: recombinant human AChE, gift from F. Nachon
- Procedure text: Ellman assay; joint IC50 over all ATCh concentrations
- Condition label: read-out: Approx. IC50
- Excerpt: Ellman assay; joint IC50 over all ATCh concentrations on human recombinant AChE
Reported metric: IC50

{"columns": ["Compound", "Target or system", "Measured result"],
 "data": [
  ["O=C(O)CNCP(=O)(O)O [glyphosate, N-(phosphonomethyl)glycine]", "human recombinant AChE (Homo sapiens)", "~25.1 mM"]
]}

* * *

- Target or system: human BChE isolated from plasma (Homo sapiens)
- Construct: native, purified from human plasma, gift from F. Nachon
- Procedure text: Ellman assay; joint IC50 over all ATCh concentrations
- Condition label: read-out: Approx. IC50
- Text: Ellman assay; joint IC50 over all ATCh concentrations on human BChE isolated from plasma
pIC50: −log10 of the molar value.

{"columns": ["Compound", "pIC50"],
 "data": [
  ["O=C(O)CNCP(=O)(O)O [glyphosate, N-(phosphonomethyl)glycine]", "~1.70"]
]}

* * *

- Target or system: human BChE isolated from plasma (Homo sapiens, UniProt P06276)
- Construct: native, purified from human plasma, gift from F. Nachon
- Sequence (P06276 29-602): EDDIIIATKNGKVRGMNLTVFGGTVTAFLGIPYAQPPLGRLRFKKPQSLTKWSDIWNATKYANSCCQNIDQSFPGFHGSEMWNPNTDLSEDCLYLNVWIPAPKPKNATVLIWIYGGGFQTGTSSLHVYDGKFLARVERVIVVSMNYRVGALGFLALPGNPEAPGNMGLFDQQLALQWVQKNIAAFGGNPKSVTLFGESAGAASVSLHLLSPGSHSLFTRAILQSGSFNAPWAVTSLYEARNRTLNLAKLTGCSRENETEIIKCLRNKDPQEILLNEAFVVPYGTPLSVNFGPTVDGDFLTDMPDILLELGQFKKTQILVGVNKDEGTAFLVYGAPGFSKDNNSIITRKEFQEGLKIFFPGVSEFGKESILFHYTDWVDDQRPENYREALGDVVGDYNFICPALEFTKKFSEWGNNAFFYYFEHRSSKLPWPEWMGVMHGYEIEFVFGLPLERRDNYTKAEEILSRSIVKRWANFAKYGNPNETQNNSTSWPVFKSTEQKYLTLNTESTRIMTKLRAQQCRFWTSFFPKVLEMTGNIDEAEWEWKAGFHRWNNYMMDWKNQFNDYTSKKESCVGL
- Procedure text: Ellman assay
- Format: biochemical
- From the text: Ellman assay on human BChE isolated from plasma
pKi: −log10 of the molar value.

{"columns": ["Molecule", "pKi"],
 "data": [
  ["O=C(O)CNCP(=O)(O)O [glyphosate, N-(phosphonomethyl)glycine]", 1.71]
]}

* * *

- Target or system: human recombinant AChE (Homo sapiens, UniProt P22303)
- Construct: recombinant human AChE, gift from F. Nachon
- Sequence (P22303 32-614): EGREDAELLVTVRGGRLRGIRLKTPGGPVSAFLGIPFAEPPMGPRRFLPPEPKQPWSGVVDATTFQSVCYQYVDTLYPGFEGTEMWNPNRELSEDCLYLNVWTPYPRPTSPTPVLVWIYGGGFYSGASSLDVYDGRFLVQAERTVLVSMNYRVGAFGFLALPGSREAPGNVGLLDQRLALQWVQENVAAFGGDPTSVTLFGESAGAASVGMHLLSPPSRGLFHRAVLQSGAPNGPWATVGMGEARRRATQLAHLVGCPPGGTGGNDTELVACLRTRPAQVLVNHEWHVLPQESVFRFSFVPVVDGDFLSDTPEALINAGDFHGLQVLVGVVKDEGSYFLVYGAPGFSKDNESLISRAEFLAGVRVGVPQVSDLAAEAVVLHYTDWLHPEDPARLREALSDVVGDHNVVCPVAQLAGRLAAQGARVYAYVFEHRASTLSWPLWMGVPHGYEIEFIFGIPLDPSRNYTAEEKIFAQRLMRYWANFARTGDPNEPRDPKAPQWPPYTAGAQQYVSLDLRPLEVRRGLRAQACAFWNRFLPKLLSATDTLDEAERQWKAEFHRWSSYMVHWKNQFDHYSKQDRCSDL
- Procedure text: Ellman assay
pKi: −log10 of the molar value.

{"columns": ["Molecule", "Target or system", "pKi"],
 "data": [
  ["O=C(O)CNCP(=O)(O)O [glyphosate, N-(phosphonomethyl)glycine]", "human recombinant AChE (Homo sapiens, UniProt P22303)", 1.55]
]}
